System: MDA-MB-231 breast
experiment description: NCI-60 one-dose screen, 48 h
condition summary: 10 µM unless noted
Procedure: Cells are grown in 96 well plates and exposed to the test compound for 48 hours. Compounds are tested at a single concentration, which is 10^-5 M for most compounds. The reported endpoint is percent growth (GI% or GIPRCNT), where numbers from 0 - 100% represent growth inhibition, and numbers from -100% - 0 represent cell death. For example, a value of 40 represents 60% growth inhibition. A value of 0 means no net growth occurred over the course of the experiment. […]
The panel holds about 83,000 compounds, 20% with a hit somewhere; the sample as a whole holds those more often. Activity calls are given as the source filed them. Rule for the calls: active = growth percent below 10; inactive = the rest.
Please state which outcome applies, choosing from YES = active, NO = inactive

COc1cc(/C=C/c2ccccc2)cc(OC)c1 | NO
NCCNc1nc2ccccc2c2c(=O)c3cccc(F)c3sc12 | NO
O=[N+]([O-])c1ccccc1NCSc1ccc(Cl)cc1 | NO

// outcome(item) with item = COc1ccc(CN2c3ccccc3CCc3ccccc32)cc1F
NO

// outcome(item) with item = CSc1ncccc1C(=O)OCC(=O)Nc1oc(C)c2c(C)n[nH]c(=O)c12
NO

// outcome(item) with item = CN(C)CCCNc1nc2ccccc2c2c(=O)c3cc(F)ccc3sc12
YES

---

Tested on: PC-3 prostate
experiment description: NCI-60 one-dose screen, 48 h (100 = growth as untreated, 0 = no growth, -100 = all killed)
condition summary: 10 µM unless noted
This is part of a sample that, as a whole, favours compounds with a hit. Of some 83,000 tested, about 20% had one in any assay.
Kindly note that classification relies on growth with these boundaries: bottom = under 40%, middle = from 40% up to 80%, top = 80% and over

Reference set (2 entries):
O=C(CSc1nccc(Nc2ccc(S(=O)(=O)Nc3nccs3)cc2)n1)c1ccc(C(F)(F)F)cc1 | top
COc1ccc(C2NC(=O)C(C#N)c3c2sc2c(F)cccc32)c(OC)c1 (stereo not given) | middle

Band of O=c1ccc(N=Nc2ccc([N+](=O)[O-])cc2)ccc1O ?
bottom

Band of O=C1c2cccc3cccc(c23)C(=O)N1Nc1nc(N2CCOCC2)nc(N2CCN(c3ccccc3)CC2)n1 ?
middle

Band of O=C1c2cccc3cccc(c23)C(=O)N1N1C(=O)c2cccc3c(NC4CCCCC4)ccc(c23)C1=O ?
top

---

Tested on: MCF7 breast
experiment description: NCI-60 one-dose screen, 48 h (100 = growth as untreated, 0 = no growth, -100 = all killed)
condition summary: 10 µM unless noted
The panel holds about 83,000 compounds, 20% with a hit somewhere; the sample as a whole holds those more often. The source made the active and inactive calls. The calls were made as follows: active = growth percent below 10; inactive = the rest.
growth values by entry

Some solved cases for reference:
CCN(CC)CCNc1nc2ccccc2c2c(=O)c3cc(Cl)ccc3sc12 | 52.3% (inactive)
O=C(N/N=C/[C@H](O)[C@@H](O)[C@@H](O)[C@H](O)CO)c1ccc(NC(=O)c2cccnc2)cc1 | 94.8% (inactive)
CN1CCN(c2ccc(-c3cc4c(Nc5ccc(F)c(Cl)c5)ncnn4c3)cn2)CC1 | 77.4% (inactive)
COc1cc(C(=O)/C=C/c2ccc(OCCCCCC[P+](c3ccccc3)(c3ccccc3)c3ccccc3)cc2)cc(OC)c1OC | -68.1% (active)
S=c1nc(-c2ccccc2)oc(=NC2CCCCC2)n1C1CCCCC1 | 12.7% (inactive)
N#CC1=C(N)Oc2c(sc3c(Br)cccc23)C1c1ccc(Br)cc1 (centres undefined) | 10.9% (inactive)
Cc1ccc(NC2=C(Cl)C(=O)c3nc(C)ccc3C2=O)cc1 | -66.1% (active)
Cc1cc(=O)oc2cc(OC(=O)CN3CCN(C)CC3)ccc12 | 93.1% (inactive)

Result for CC/C=C\C[C@@H]1C/C=C2/C(=O)C=C[C@H]2C/C=C\CCCC(=O)O1 , tested on MCF7 breast, growth: -9.37% (active)

Result for Cc1cc(C)c(-c2c(N)cc(Br)cc2Br)c(N)c1 , tested on MCF7 breast, growth: 21.4% (inactive)

Result for CCCCCCN(CCCCCC)c1ccc(/C=C2/SC(=O)NC2=O)c(C)c1 , tested on MCF7 breast, growth: 79.2% (inactive)

Result for CC(=O)OC[C@H]1OC(Sc2sc(C(=O)c3ccc(Cl)cc3)c(N)c2-c2nc3ccccc3s2)[C@H](OC(C)=O)[C@@H](OC(C)=O)[C@@H]1OC(C)=O (some centres undefined) , tested on MCF7 breast, growth: 82.1% (inactive)

Result for O=C(CCN1C(=O)/C(=C/c2ccc(O)cc2)SC1=S)Nc1ccc(Cl)cc1 , tested on MCF7 breast, growth: 89% (inactive)

Result for COc1c(B(O)O)cc(C)cc1-c1nc2ccc3[nH]ncc3c2c2c1CCCC2 , tested on MCF7 breast, growth: 54.6% (inactive)

Result for c1cc(-c2nnc(SSc3ncnc4nc[nH]c34)o2)ccn1 , tested on MCF7 breast, growth: 23% (inactive)

Result for O=c1c2cc(F)ccc2sc2c(NCCO)nc3ccccc3c12 , tested on MCF7 breast, growth: 39.4% (inactive)

Result for Fc1cc(-c2nnc3sc(-c4ccc(Cl)cc4Cl)nn23)c(Cl)cc1Cl , tested on MCF7 breast, growth: 83.7% (inactive)

Result for CCOC(=O)c1sc2ncc(-c3ccc(C)cc3)n2c1C , tested on MCF7 breast, growth: 86.7% (inactive)

Result for CC(=O)CC[C@H]1C(=O)N[C@@H](C(C)C)C(=O)N[C@@H](Cc2cc(O)cc(F)c2)C(=O)N2CCC[C@H](N2)C(=O)O[C@H](/C(C)=C/C=C/C(=O)OC(C)(C)C)C/C=C/C=C/[C@H](O)[C@H](C)[C@H]1O , tested on MCF7 breast, growth: 48.2% (inactive)

Attribution: PubChem BioAssay (NCI)
